Measured Metric: melting point

In the examples that follow, each entry is paired with its recorded melting point.
CS(=O)(=O)NCCN1c2c(cnc3ccccc23)Sc2cnc3ccccc3c21 :: 229 to 230 °C
CC(=O)NCCCCN1c2c(cnc3ccccc23)Sc2cnc3ccccc3c21 :: 68 to 69 °C
CC(=O)NCCN1c2c(cnc3ccccc23)Sc2cnc3ccccc3c21 :: 89 to 90 °C
CSc1ccc(N2c3c(cnc4ccccc34)Sc3cnc4ccccc4c32)cc1 :: 262 to 263 °C
CS(=O)(=O)NCCCN1c2c(cnc3ccccc23)Sc2cnc3ccccc3c21 :: 199 to 200 °C

For every item below, please supply its melting point.
1. N#Cc1ccc(N2c3c(cnc4ccccc34)Sc3cnc4ccccc4c32)cc1
2. CS(=O)(=O)NCCCCN1c2c(cnc3ccccc23)Sc2cnc3ccccc3c21
3. FC(F)(F)c1ccc(N2c3c(cnc4ccccc34)Sc3cnc4ccccc4c32)cc1
4. CC(=O)NCCCN1c2c(cnc3ccccc23)Sc2cnc3ccccc3c21

Return:
["> 300 °C", "184 to 186 °C", "292 to 293 °C", "171 to 172 °C"]

====

Consider the following compounds; for each one, report its pIC50.
test system: HCT116 cells; assay: 72-h MTT viability assay, HCT116; assay type: cell-based, human; settings: Homo sapiens, HCT-116, 72 h, 72 h incubation, mean of 3 experiments +/-SD
Give bare numbers, as −log10 of the molar value.

Sample records with pIC50:
CS(=O)(=O)NCCCN1c2c(cnc3ccccc23)Sc2cnc3ccccc3c21 [Compound 6b] :: 4.81
c1ccc2c3c(cnc2c1)Sc1cnc2ccccc2c1N3CCN1CCOCC1 [Compound 2d] :: 4.64
FC(F)(F)c1ccc(N2c3c(cnc4ccccc34)Sc3cnc4ccccc4c32)cc1 [Compound 3b] :: 4.77
c1ccc2c3c(cnc2c1)Sc1cnc2ccccc2c1N3CCN1CCNCC1 [Compound 2e, 14-(piperazinyloethyl)dichinotiazyny] :: 4.99

Parameter requested: pIC50. Apply to each item below.
1. CC(=O)NCCCN1c2c(cnc3ccccc23)Sc2cnc3ccccc3c21 [Compound 5b, 14-acetylaminopropyldiquinothiazine]
2. O=C1CCCN1CCCN1c2c(cnc3ccccc23)Sc2cnc3ccccc3c21 [Compound 2b, 14-(pyrrolidinonylpropyl)diquinothiazine]
3. CS(=O)(=O)NCCN1c2c(cnc3ccccc23)Sc2cnc3ccccc3c21 [Compound 6a]
4. CN(C)CCCN1c2c(cnc3ccccc23)Sc2cnc3ccccc3c21 [Compound 2g]
5. CC(=O)NCCN1c2c(cnc3ccccc23)Sc2cnc3ccccc3c21 [Compound 5a, 14-acetylaminoethyldiquinothiazine]
6. c1ccc2c3c(cnc2c1)Sc1cnc2ccccc2c1N3CCN1CCCC1 [Compound 2a, 14-(pyrrolidinylethyl)diquinothiazine]
7. c1ccc2c3c(cnc2c1)Sc1cnc2ccccc2c1N3 [Compound M0]

Return:
4.75
5.03
4.69
4.88
4.59
4.95
5.24

Each compound below has a recorded value; state its pIC50.
1. COc1cc([C@@H]2c3cc4c(cc3[C@@H](O[C@@H]3O[C@@H]5CO[C@@H](C)O[C@H]5[C@H](O)[C@H]3O)[C@H]3COC(=O)[C@H]23)OCO4)cc(OC)c1O [etoposide, reference compound]
2. CS(=O)(=O)NCCCCN1c2c(cnc3ccccc23)Sc2cnc3ccccc3c21 [Compound 6c]
3. CC(=O)NCCCCN1c2c(cnc3ccccc23)Sc2cnc3ccccc3c21 [Compound 5c, 14-acetylaminobutyldiquinothiazine]
4. CCN(CC)CCN1c2c(cnc3ccccc23)Sc2cnc3ccccc3c21 [Compound 2f]

Return:
1. 5.07
2. 4.75
3. 4.58
4. 4.77

====

System: H1299 cells
Assay: 72-h MTT viability assay, H1299
Assay type: cell-based, human
Settings: 72 h incubation, mean of 3 experiments +/-SD
Protocol: The IC50 for cell viability was described with a dose of the drug, with a 50% reduction in the whole population, when compared to the untreated controls. […] HCT116 and SH-5YSY cells collected after trypsinization were counted under the Bürker’s chamber, and 2000 or 5000 cells were seeded on each well of the 96-well-format sterile plate (Sarstedt, Nümbrecht, Germany), in 100 µL of complete DMEM-F12 medium, respectively. […]
Measured Metric: IC50 (nM)
Answers are plain numbers, in nM.

IC50 recorded for this compound, CSc1ccc(N2c3c(cnc4ccccc34)Sc3cnc4ccccc4c32)cc1 , is 1600

====

test system: H1299 cells; assay: 72-h MTT viability assay, H1299; type: cell-based, human; conditions: Homo sapiens, NCI-H1299, 72 h, 72 h incubation, mean of 3 experiments +/-SD
Measured Metric: IC50
# do not omit the unit; it follows the number

Previously resolved entries follow.
c1ccc2c3c(cnc2c1)Sc1cnc2ccccc2c1N3CCN1CCNCC1 :: 7 µM
c1ccc2c3c(cnc2c1)Sc1cnc2ccccc2c1N3CCN1CCOCC1 :: 8.9 µM
CC(=O)NCCN1c2c(cnc3ccccc23)Sc2cnc3ccccc3c21 :: 26.2 µM
c1ccc2c3c(cnc2c1)Sc1cnc2ccccc2c1N3 :: 67.2 µM
O=C1CCCN1CCCN1c2c(cnc3ccccc23)Sc2cnc3ccccc3c21 :: 5.3 µM
COc1cc([C@@H]2c3cc4c(cc3[C@@H](O[C@@H]3O[C@@H]5CO[C@@H](C)O[C@H]5[C@H](O)[C@H]3O)[C@H]3COC(=O)[C@H]23)OCO4)cc(OC)c1O [etoposide, reference compound] :: 0.6 µM
FC(F)(F)c1ccc(N2c3c(cnc4ccccc34)Sc3cnc4ccccc4c32)cc1 :: 14.6 µM
CC(=O)NCCCCN1c2c(cnc3ccccc23)Sc2cnc3ccccc3c21 :: 30.3 µM
CN(C)CCCN1c2c(cnc3ccccc23)Sc2cnc3ccccc3c21 :: 24.5 µM
CS(=O)(=O)NCCN1c2c(cnc3ccccc23)Sc2cnc3ccccc3c21 :: 36.9 µM

Could you tell me IC50 for each of these compounds? They are listed below.
1. CS(=O)(=O)NCCCCN1c2c(cnc3ccccc23)Sc2cnc3ccccc3c21
2. N#Cc1ccc(N2c3c(cnc4ccccc34)Sc3cnc4ccccc4c32)cc1
3. c1ccc2c3c(cnc2c1)Sc1cnc2ccccc2c1N3CCN1CCCC1
4. c1ccc2c3c(cnc2c1)Sc1cnc2ccccc2c1N3CCN1CCCCC1

Return:
["13.4 µM", "3.7 µM", "8.1 µM", "7.5 µM"]

Go through the items and report each one's IC50.
1. CSc1ccc(N2c3c(cnc4ccccc34)Sc3cnc4ccccc4c32)cc1
2. CCN(CC)CCN1c2c(cnc3ccccc23)Sc2cnc3ccccc3c21
3. CS(=O)(=O)NCCCN1c2c(cnc3ccccc23)Sc2cnc3ccccc3c21
4. CC(=O)NCCCN1c2c(cnc3ccccc23)Sc2cnc3ccccc3c21

Return:
["2.7 µM", "22.2 µM", "25.9 µM", "23.5 µM"]

====

system: SH-SY5Y cells; experiment: 72-h MTT viability assay, SH-SY5Y; type: cell-based, human; conditions: Homo sapiens, SH-SY5Y, 72 h incubation, mean of 3 experiments +/-SD, no effect = viability (SF) similar to control, about 100%
Binary label based on IC50 with cut-off 10 µM: below gives condition met, not below gives condition not met.

Example entries and their recorded answers appear below.
COc1cc([C@@H]2c3cc4c(cc3[C@@H](O[C@@H]3O[C@@H]5CO[C@@H](C)O[C@H]5[C@H](O)[C@H]3O)[C@H]3COC(=O)[C@H]23)OCO4)cc(OC)c1O [etoposide, reference compound] :: condition met
O=C1CCCN1CCCN1c2c(cnc3ccccc23)Sc2cnc3ccccc3c21 :: condition met
CSc1ccc(N2c3c(cnc4ccccc34)Sc3cnc4ccccc4c32)cc1 :: condition met

Enquiry: Does the reported IC50 of the following compound sit strictly below 10 µM? c1ccc2c3c(cnc2c1)Sc1cnc2ccccc2c1N3CCN1CCCCC1
Return: condition not met

Enquiry: Item CC(=O)NCCCCN1c2c(cnc3ccccc23)Sc2cnc3ccccc3c21 : IC50 beneath 10 µM, strictly?
Return: condition not met

Enquiry: State whether 10 µM exceeds IC50 recorded for c1ccc2c3c(cnc2c1)Sc1cnc2ccccc2c1N3CCN1CCOCC1 .
Return: condition not met

====

system: BEAS-2B cells; experiment: 72-h MTT viability assay, normal lung epithelial BEAS-2B; type: cell-based, human; conditions: 72 h incubation, mean of 3 experiments +/-SD, no effect = viability (SF) similar to control, about 100%
Measured Metric: IC50 BEAS-2B

Examples with their reported IC50 BEAS-2B follow.
c1ccc2c3c(cnc2c1)Sc1cnc2ccccc2c1N3 :: no effect
N#Cc1ccc(N2c3c(cnc4ccccc34)Sc3cnc4ccccc4c32)cc1 :: no effect
c1ccc2c3c(cnc2c1)Sc1cnc2ccccc2c1N3CCN1CCCCC1 :: no effect
CS(=O)(=O)NCCN1c2c(cnc3ccccc23)Sc2cnc3ccccc3c21 :: no effect
CS(=O)(=O)NCCCCN1c2c(cnc3ccccc23)Sc2cnc3ccccc3c21 :: no effect
CN(C)CCCN1c2c(cnc3ccccc23)Sc2cnc3ccccc3c21 :: no effect
CS(=O)(=O)NCCCN1c2c(cnc3ccccc23)Sc2cnc3ccccc3c21 :: no effect

Alright, here's another compound for you.
Form: compound = CC(=O)NCCCCN1c2c(cnc3ccccc23)Sc2cnc3ccccc3c21 ; IC50 BEAS-2B = no effect
